# Tested on: 354836-022-R-J1-PDC multicell spheroid viability;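 also: spheroids exposed to agents for seven days before the viability read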
# assay name: Anticancer human tumor 354836-022-R-J1-PDC patient-derived head and neck squamous cell carcinoma cell line growth inhibition [PI3K]
# particulars: second compound 0.01 µM; first compound 0.1 µM; active compounds read low
measured quantity: viability, T/C (%)
Give bare numbers, in %.

Would you please look over these solved cases?
molecule	unit	observed result
C[C@@H](NC(=O)c1ncnc(N)c1Cl)c1ncc(C(=O)Nc2cc(C(F)(F)F)c(Cl)cn2)s1 + CC(Nc1ccc2c(c1)OCCn1cc(N3C(=O)OCC3C(F)F)nc1-2)C(N)=O	%	90.9
CC1(C)CCC(Nc2ncc(C(F)(F)F)c(-c3c[nH]c4c(P(C)(C)=O)c(C#N)ccc34)n2)CN1 (stereo unspecified) + COc1c(OCCCN2CCOCC2)ccc2c3n(c(=NC(=O)c4cnc(N)nc4)nc12)CCN3	%	12.1
CCN1CCN(Cc2ccc(Nc3ncc(F)c(-c4cc(F)c5nc(C)n(C(C)C)c5c4)n3)nc2)CC1 + COc1c(OCCCN2CCOCC2)ccc2c3n(c(=NC(=O)c4cnc(N)nc4)nc12)CCN3	%	81.1
CC(Cn1ccc(-c2ccc(C#N)c(Cl)c2)n1)NC(=O)c1cc(C(C)O)[nH]n1 (stereo unspecified) + CC(Nc1ccc2c(c1)OCCn1cc(N3C(=O)OCC3C(F)F)nc1-2)C(N)=O	%	103
CC(C)n1nc(-c2ccc3oc(N)nc3c2)c2c(N)ncnc21 + CC(Nc1ccc2c(c1)OCCn1cc(N3C(=O)OCC3C(F)F)nc1-2)C(N)=O	%	13.1
CC1(C)CCC(CN2CCN(c3ccc(C(=O)NS(=O)(=O)c4ccc(NCC5CCOCC5)c([N+](=O)[O-])c4)c(Oc4cnc5[nH]ccc5c4)c3)CC2)=C(c2ccc(Cl)cc2)C1 + CC(Nc1ccc2c(c1)OCCn1cc(N3C(=O)OCC3C(F)F)nc1-2)C(N)=O	%	91

Fill in viability, T/C for each of the 5 molecules listed.
1. CC(=O)c1c(C)c2cnc(Nc3ccc(N4CCNCC4)cn3)nc2n(C2CCCC2)c1=O + COc1c(OCCCN2CCOCC2)ccc2c3n(c(=NC(=O)c4cnc(N)nc4)nc12)CCN3
2. Cn1ncnc1[C@H]1c2n[nH]c(=O)c3cc(F)cc(c23)N[C@@H]1c1ccc(F)cc1 + CC(Nc1ccc2c(c1)OCCn1cc(N3C(=O)OCC3C(F)F)nc1-2)C(N)=O
3. C[C@@H](NC(=O)c1ncnc(N)c1Cl)c1ncc(C(=O)Nc2cc(C(F)(F)F)c(Cl)cn2)s1 + COc1c(OCCCN2CCOCC2)ccc2c3n(c(=NC(=O)c4cnc(N)nc4)nc12)CCN3
4. CNC(=O)c1ccc(N2C(=S)N(c3ccc(C#N)c(C(F)(F)F)c3)C(=O)C2(C)C)cc1F + COc1c(OCCCN2CCOCC2)ccc2c3n(c(=NC(=O)c4cnc(N)nc4)nc12)CCN3
5. CCCS(=O)(=O)Nc1ccc(F)c(C(=O)c2c[nH]c3ncc(-c4ccc(Cl)cc4)cc23)c1F + COc1c(OCCCN2CCOCC2)ccc2c3n(c(=NC(=O)c4cnc(N)nc4)nc12)CCN3

105
84.3
101
92.8
93.7

Data credit: PubChem BioAssay AID1963981
